experimental_target: T1, CSTF2 RRM F45A (Homo sapiens, UniProt P33240 1-107, F45A)
T1 sequence: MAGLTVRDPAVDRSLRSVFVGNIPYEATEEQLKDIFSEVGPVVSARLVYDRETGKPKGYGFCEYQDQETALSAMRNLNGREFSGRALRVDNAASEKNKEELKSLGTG
experiment_description: ITC
recorded_metric: pKd
Hey, just a heads up that pKd is the negative log base 10 of the concentration in molar.

Tell me the measured pKd of AUUUUAUGUUUCAGGU (ssRNA) [SVL RNA] , please.
6.00

Data provenance: paper PMC8873925
